# Tested Target: NL20 human bronchial epithelial cells expressing human Z-AAT (Homo sapiens, UniProt P01009, E366K)
# Sequence (P01009 25-418 E366K): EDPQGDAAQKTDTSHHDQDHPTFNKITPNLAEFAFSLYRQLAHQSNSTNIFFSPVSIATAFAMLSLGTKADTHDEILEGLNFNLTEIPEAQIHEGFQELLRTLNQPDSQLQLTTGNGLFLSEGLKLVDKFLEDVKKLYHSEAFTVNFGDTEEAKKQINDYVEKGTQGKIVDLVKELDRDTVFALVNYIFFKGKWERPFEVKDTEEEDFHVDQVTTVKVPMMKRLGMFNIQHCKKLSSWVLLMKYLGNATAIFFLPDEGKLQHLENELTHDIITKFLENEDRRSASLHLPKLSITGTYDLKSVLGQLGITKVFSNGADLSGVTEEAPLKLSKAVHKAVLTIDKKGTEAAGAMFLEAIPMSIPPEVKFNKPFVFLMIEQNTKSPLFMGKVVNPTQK
# Test Summary: AAT Function Assay (MSD Assay NL20-SI Cell Line)
# Run Parameters: read-out: NL20 Functional EC50
Reported EC50 by item:

{"Compound": "Cc1cc(-c2c(C3CCOCC3)c(NCCS(C)(=O)=O)nc3cc(O)ccc23)ccn1", "Observation Type": "EC50", "Endpoint Value": "> 3 µM"}
{"Compound": "Cc1nc2cc(O)ccc2c(-c2ccc(F)cc2)c1C(C)C", "Observation Type": "EC50", "Endpoint Value": "> 3 µM"}
{"Compound": "Cc1cc(-c2c(C(C)C)nc(OC3CC(C)(C(=O)O)C3)c3cc(O)ccc23)ccc1F (stereo not shown) [Compound 45]", "Observation Type": "EC50", "Endpoint Value": "< 1.2 µM"}
{"Compound": "Cc1cc(-c2c(C(C)C)c(N3CC(C(=O)O)C3)nc3cc(O)ccc23)ccc1F", "Observation Type": "EC50", "Endpoint Value": "< 1.2 µM"}
{"Compound": "CC(C)c1nc(O[C@H](C)CO)c2cc(O)ccc2c1-c1ccc(F)cc1", "Observation Type": "EC50", "Endpoint Value": "> 3 µM"}
{"Compound": "Cc1cc(-c2c(C3CCOCC3)nc(OCC(N)=O)c3cc(O)ccc23)ccn1", "Observation Type": "EC50", "Endpoint Value": "> 3 µM"}
{"Compound": "C[C@H](Nc1nc2cc(O)ccc2c(-c2ccc(F)cc2)c1C1CCOCC1)C(=O)O", "Observation Type": "EC50", "Endpoint Value": "> 3 µM"}
{"Compound": "C[C@H](Oc1nc(C(F)(F)F)c(-c2ccc(F)cc2)c2ccc(O)cc12)C(=O)O", "Observation Type": "EC50", "Endpoint Value": "> 3 µM"}

Problem: Which EC50 is reported for this compound? CC(C)c1nc(OC2CC3(CCN(CC(=O)O)C3=O)C2)c2cc(O)ccc2c1-c1ccc(F)cc1 (single isomer, unassigned) [Compound 23]
Result: 1.2 to 3 µM

Problem: Which EC50 is reported for this compound? O=C(O)[C@]1(F)C[C@H](Oc2nc(C3CCOCC3)c(-c3ccc(F)c(F)c3)c3cccc(O)c23)C1 (single isomer, unassigned)
Result: > 3 µM

Problem: Which EC50 is reported for this compound? `CC(C)c1nc(OC2CCN(CC(=O)O)CC2)c2cc(O)ccc2c1-c1ccc(F)cc1`
Result: > 3 µM

Problem: Which EC50 is reported for this compound? Cc1cc(-c2c(C(C)C)nc(OC3CCC(C(=O)O)C3)c3cc(O)ccc23)ccc1F (stereo not shown) [Compound 52]
Result: 1.2 to 3 µM

Problem: Which EC50 is reported for this compound? Cc1cc(-c2c(N3CCOC(C)C3)nc(OCC(=O)O)c3cc(O)ccc23)ccc1F (stereo not shown)
Result: > 3 µM

Problem: Which EC50 is reported for this compound? `O=C(O)C1(CNc2nc3cc(O)ccc3c(-c3ccc(F)cc3)c2C2CCOCC2)CC1`
Result: > 3 µM

Problem: Which EC50 is reported for this compound? `O=C(O)C1CN(c2nc3cc(O)ccc3c(-c3ccc(F)cc3)c2C2CCOCC2)C1`
Result: > 3 µM

Problem: Which EC50 is reported for this compound? `C=C(C)c1c(N[C@@H](C)C(=O)O)nc2cc(O)ccc2c1-c1ccc(F)cc1`
Result: < 1.2 µM
